Tested System: 14-3-3ζ (Homo sapiens)
Construct: Both full-length 14-3-3ζ and 14-3-3ζΔC12 were expressed as N-terminally His-tagged protein; His tag (TEV-cleavable) (N, cleaved yes); made in house; host or cells: Escherichia coli BL21 (DE3) pLysS
Sequence (P63104 1-245): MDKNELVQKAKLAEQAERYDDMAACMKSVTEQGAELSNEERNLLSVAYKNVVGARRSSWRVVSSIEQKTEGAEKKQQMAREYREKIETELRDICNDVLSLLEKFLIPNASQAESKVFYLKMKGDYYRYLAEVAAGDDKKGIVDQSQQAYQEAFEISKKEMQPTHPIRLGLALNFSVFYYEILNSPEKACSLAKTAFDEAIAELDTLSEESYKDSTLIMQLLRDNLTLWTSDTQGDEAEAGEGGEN
Assay Explanation: ITC of Cby peptides titrated into 14-3-3ζ
Type: binding
Stated Conditions: 25°C, pH 6.8, duplicate set (S1 Table)
Square brackets hold non-standard residues; d marks the D form. Peptide text beside a SMILES is read from it. pS = N[C@@H](COP(=O)(O)O)C(=O)O
Value Kind: n (binding stoichiometry of monomeric 14-3-3 and Cby peptide)

>  <Compound>
CC(C)C[C@H](NC(=O)[C@H](CC(N)=O)NC(=O)[C@H](CO)NC(=O)[C@H](CC(C)C)NC(=O)[C@H](COP(=O)(O)O)NC(=O)[C@H](C)NC(=O)[C@H](CO)NC(=O)[C@H](CCCCN)NC(=O)[C@H](CCCNC(=N)N)NC(=O)[C@@H]1CCCN1C(=O)[C@@H]1CCCN1C(=O)[C@@H](NC(=O)[C@@H](N)CCCCN)[C@@H](C)O)C(=O)O [Cby 13-mer] (H-KTPPRKSA[pS]LSNL-OH)

>  <Tested System>
14-3-3ζ (Homo sapiens)

>  <Measurement>
1.07

$$$$
>  <Compound>
CC(=O)N[C@@H](CCCNC(=N)N)C(=O)N[C@@H](CCCCN)C(=O)N[C@@H](CO)C(=O)N[C@@H](C)C(=O)N[C@@H](COP(=O)(O)O)C(=O)N[C@@H](CC(C)C)C(=O)N1CCC[C@H]1C(N)=O [Cby 7-mer S22P] (Ac-RKSA[pS]LP-NH2)

>  <Tested System>
14-3-3ζ (Homo sapiens)

>  <Measurement>
1.02

$$$$
>  <Compound>
CC(=O)N[C@@H](CCCNC(=N)N)C(=O)N[C@@H](CCCCN)C(=O)N[C@@H](CO)C(=O)N[C@@H](C)C(=O)N[C@@H](COP(=O)(O)O)C(=O)N[C@@H](CC(C)C)C(=O)N[C@@H](CO)C(N)=O [Cby 7-mer] (Ac-RKSA[pS]LS-NH2)

>  <Tested System>
14-3-3ζ (Homo sapiens)

>  <Measurement>
0.94

$$$$

----------
Reported TΔS values for a set of compounds
Tested System: 14-3-3ζ (Homo sapiens)
Construct: Both full-length 14-3-3ζ and 14-3-3ζΔC12 were expressed as N-terminally His-tagged protein; His tag (TEV-cleavable) (N, cleaved yes); made in house; host or cells: Escherichia coli BL21 (DE3) pLysS
Assay Explanation: ITC of Cby peptides titrated into 14-3-3ζ
Format: binding
Stated Conditions: 298.15 K, pH 6.8, Table 1 set of duplicate experiments
Square brackets hold non-standard residues; d marks the D form. Peptide text beside a SMILES is read from it. pS = N[C@@H](COP(=O)(O)O)C(=O)O

>  <Compound>
CC(C)C[C@H](NC(=O)[C@H](CC(N)=O)NC(=O)[C@H](CO)NC(=O)[C@H](CC(C)C)NC(=O)[C@H](COP(=O)(O)O)NC(=O)[C@H](C)NC(=O)[C@H](CO)NC(=O)[C@H](CCCCN)NC(=O)[C@H](CCCNC(=N)N)NC(=O)[C@@H]1CCCN1C(=O)[C@@H]1CCCN1C(=O)[C@@H](NC(=O)[C@@H](N)CCCCN)[C@@H](C)O)C(=O)O [Cby 13-mer] (H-KTPPRKSA[pS]LSNL-OH)

>  <TΔS (kcal/mol)>
3.97

$$$$
>  <Compound>
CC(C)C[C@H](NC(=O)[C@H](CO)NC(=O)[C@H](Cc1c[nH]cn1)NC(=O)[C@H](CC(C)C)NC(=O)[C@H](CC(N)=O)NC(=O)[C@@H]1CCCN1C(=O)[C@H](CC(C)C)NC(=O)[C@H](COP(=O)(O)O)NC(=O)[C@H](C)NC(=O)[C@H](CO)NC(=O)[C@H](CCCCN)NC(=O)[C@H](CCCNC(=N)N)NC(=O)[C@@H]1CCCN1C(=O)[C@@H]1CCCN1C(=O)[C@@H](NC(=O)[C@@H](N)CCCCN)[C@@H](C)O)C(=O)N[C@@H](CC(=O)O)C(=O)N[C@@H](CCCNC(=N)N)C(=O)O [Cby 18-mer S22P] (H-KTPPRKSA[pS]LPNLHSLDR-OH)

>  <TΔS (kcal/mol)>
0.76

$$$$
>  <Compound>
CC(=O)N[C@@H](CCCNC(=N)N)C(=O)N[C@@H](CCCCN)C(=O)N[C@@H](CO)C(=O)N[C@@H](C)C(=O)N[C@@H](COP(=O)(O)O)C(=O)N[C@@H](CC(C)C)C(=O)N[C@@H](CO)C(N)=O [Cby 7-mer] (Ac-RKSA[pS]LS-NH2)

>  <TΔS (kcal/mol)>
2.60

$$$$
>  <Compound>
CC(C)C[C@H](NC(=O)[C@H](CC(N)=O)NC(=O)[C@@H]1CCCN1C(=O)[C@H](CC(C)C)NC(=O)[C@H](COP(=O)(O)O)NC(=O)[C@H](C)NC(=O)[C@H](CO)NC(=O)[C@H](CCCCN)NC(=O)[C@H](CCCNC(=N)N)NC(=O)[C@@H]1CCCN1C(=O)[C@@H]1CCCN1C(=O)[C@@H](NC(=O)[C@@H](N)CCCCN)[C@@H](C)O)C(=O)O [Cby 13-mer S22P] (H-KTPPRKSA[pS]LPNL-OH)

>  <TΔS (kcal/mol)>
3.49

$$$$

----------
Entries and their TΔS values follow.
Tested System: 14-3-3ζ (Homo sapiens, UniProt P63104)
Construct: Both full-length 14-3-3ζ and 14-3-3ζΔC12 were expressed as N-terminally His-tagged protein; His tag (TEV-cleavable) (N, cleaved yes); made in house; host or cells: Escherichia coli BL21 (DE3) pLysS
Assay Explanation: ITC of Cby peptides titrated into 14-3-3ζ
Assay type: binding
Stated Conditions: 298.15 K, pH 6.8, Table 1 set of duplicate experiments
Protocol: The human14-3-3ζ ORF purchased from GeneCopoeia was transferred into Gateway pDEST17 vector (Invitrogen). […] Both full-length 14-3-3ζ and 14-3-3ζΔC12 were expressed as N-terminally His-tagged protein in Escherichia coli (E. coli) BL21 (DE3) pLysS in M9 medium. […] ITC experiments were performed on a VP-ITC instrument (MicroCal) at 25°C. […] Peptide and protein concentrations were determined from amino acid analysis (Amino Acid Analysis Facility, SickKids, Toronto, ON).
Square brackets hold non-standard residues; d marks the D form. Peptide text beside a SMILES is read from it. pS = N[C@@H](COP(=O)(O)O)C(=O)O
Value Kind: TΔS (kcal/mol)

>  <Compound>
CC(C)C[C@H](NC(=O)[C@H](COP(=O)(O)O)NC(=O)[C@H](C)NC(=O)[C@H](CO)NC(=O)[C@H](CCCCN)NC(=O)[C@H](CCCNC(=N)N)NC(=O)[C@@H]1CCCN1C(=O)[C@@H]1CCCN1C(=O)[C@@H](NC(=O)[C@@H](N)CCCCN)[C@@H](C)O)C(=O)N[C@@H](CO)C(N)=O [Cby 11-mer] (H-KTPPRKSA[pS]LS-NH2)

>  <Measurement>
3.23

$$$$
>  <Compound>
CC(=O)N[C@@H](CCCNC(=N)N)C(=O)N[C@@H](CCCCN)C(=O)N[C@@H](CO)C(=O)N[C@@H](C)C(=O)N[C@@H](COP(=O)(O)O)C(=O)N[C@@H](CC(C)C)C(=O)N1CCC[C@H]1C(N)=O [Cby 7-mer S22P] (Ac-RKSA[pS]LP-NH2)

>  <Measurement>
1.39

$$$$
>  <Compound>
CC(C)C[C@H](NC(=O)[C@H](COP(=O)(O)O)NC(=O)[C@H](C)NC(=O)[C@H](CO)NC(=O)[C@H](CCCCN)NC(=O)[C@H](CCCNC(=N)N)NC(=O)[C@@H]1CCCN1C(=O)[C@@H]1CCCN1C(=O)[C@@H](NC(=O)[C@@H](N)CCCCN)[C@@H](C)O)C(=O)N[C@@H](CO)C(=O)N[C@@H](CC(N)=O)C(=O)N[C@@H](CC(C)C)C(=O)N[C@@H](Cc1c[nH]cn1)C(=O)N[C@@H](CO)C(=O)N[C@@H](CC(C)C)C(=O)N[C@@H](CC(=O)O)C(=O)N[C@@H](CCCNC(=N)N)C(=O)O [Cby 18-mer] (H-KTPPRKSA[pS]LSNLHSLDR-OH)

>  <Measurement>
2.93

$$$$
